Measured AUC(0-t) by item
assay.method.text: Oral pharmacokinetics in rats
Format: in vivo
run.conditions: rat, blood, male SD rats, 15 mg/kg
quantity.kind: AUC(0-t) (µg·h/mL)

[
  {
    "molecule": "CC(C)(C)[C@H](NC(=O)C(F)(F)F)C(=O)N1C[C@H]2[C@@H]([C@H]1C(=O)NC(C#N)c1cncc(C#N)c1)C2(C)C (some centres unmarked)",
    "observed.result": 7.8
  },
  {
    "molecule": "CC(C)(C)[C@H](NC(=O)C(F)(F)F)C(=O)N1C[C@H]2[C@@H]([C@H]1C(=O)NC(C#N)c1cncc(Br)c1)C2(C)C (some centres unmarked)",
    "observed.result": 3.45
  },
  {
    "molecule": "CC(=O)N[C@H](C(=O)N1C[C@H]2[C@@H]([C@H]1C(=O)NC(C#N)c1cncc3ccccc13)C2(C)C)C(C)(C)C (some centres unmarked)",
    "observed.result": 1.69
  },
  {
    "molecule": "CC(C)(C)[C@H](NC(=O)C(F)(F)F)C(=O)N1C[C@H]2[C@@H]([C@H]1C(=O)NC(C#N)c1cncc(C(F)(F)F)c1)C2(C)C (some centres unmarked)",
    "observed.result": 7.08
  },
  {
    "molecule": "CC(C)(C)OC(=O)NC(C(=O)N1C[C@H]2[C@@H]([C@H]1C(=O)NC(C#N)c1cncc(Br)c1)C2(C)C)C(C)(C)C (some centres unmarked)",
    "observed.result": 1.81
  }
]

###

Reported EC50 values for a set of molecules
Test system: SARS-CoV-2
assay.method.text: SARS-CoV-2/Hela-ACE test
Format: cell-based
run.conditions: Severe acute respiratory syndrome coronavirus 2, 48 h, read-out: SAR-CoV-2 EC50
Where a name gives a salt, the structure may show the parent alone.
quantity.kind: EC50 (µM)

[
  {
    "molecule": "CC(C)(C)[C@H](NC(=O)C(F)(F)F)C(=O)N1C[C@H]2[C@@H]([C@H]1C(=O)NC(C#N)c1cncc(Br)c1)C2(C)C (some centres unmarked)",
    "observed.result": 0.613
  },
  {
    "molecule": "CC(C)(C)[C@H](N)C(=O)N1C[C@H]2[C@@H]([C@H]1C(=O)NC(C#N)c1cncc(Br)c1)C2(C)C (some centres unmarked) [GDI-002, formate]",
    "observed.result": 7.86
  }
]

###

assay.method.text: Oral pharmacokinetics in rats
Format: in vivo
run.conditions: rat, blood, male SD rats, 15 mg/kg
Lab note: anything with half-life below 0.9 h is marked Fulfilled; values at 0.9 h or higher are marked Not fulfilled.

[
  {
    "compound": "CC(C)(C)[C@H](NC(=O)C(F)(F)F)C(=O)N1C[C@H]2[C@@H]([C@H]1C(=O)NC(C#N)c1cncc(C#N)c1)C2(C)C (some centres unmarked) [GDI-014]",
    "category": "Fulfilled"
  },
  {
    "compound": "CC(C)(C)OC(=O)NC(C(=O)N1C[C@H]2[C@@H]([C@H]1C(=O)NC(C#N)c1cncc(Br)c1)C2(C)C)C(C)(C)C (some centres unmarked) [GDI-001]",
    "category": "Not fulfilled"
  },
  {
    "compound": "CC(C)(C)[C@H](NC(=O)C(F)(F)F)C(=O)N1C[C@H]2[C@@H]([C@H]1C(=O)NC(C#N)c1cncc(C(F)(F)F)c1)C2(C)C (some centres unmarked) [GDI-012]",
    "category": "Not fulfilled"
  },
  {
    "compound": "CC(C)(C)[C@H](NC(=O)C(F)(F)F)C(=O)N1C[C@H]2[C@@H]([C@H]1C(=O)NC(C#N)c1cncc(Br)c1)C2(C)C (some centres unmarked) [GDI-011]",
    "category": "Not fulfilled"
  }
]

###

assay.method.text: Oral pharmacokinetics in rats
Format: in vivo
run.conditions: rat, blood, male SD rats, 15 mg/kg
Decision: Cmax >= 2000 ng/mL yields YES, all other cases yield NO.

[
  {
    "compound": "CC(C)(C)[C@H](NC(=O)C(F)(F)F)C(=O)N1C[C@H]2[C@@H]([C@H]1C(=O)NC(C#N)c1cncc(C(F)(F)F)c1)C2(C)C (some centres unmarked)",
    "category": "YES"
  },
  {
    "compound": "CC(C)(C)[C@H](NC(=O)C(F)(F)F)C(=O)N1C[C@H]2[C@@H]([C@H]1C(=O)NC(C#N)c1cncc(C#N)c1)C2(C)C (some centres unmarked)",
    "category": "YES"
  },
  {
    "compound": "CC(C)(C)[C@H](NC(=O)C(F)(F)F)C(=O)N1C[C@H]2[C@@H]([C@H]1C(=O)NC(C#N)c1cncc(Br)c1)C2(C)C (some centres unmarked)",
    "category": "NO"
  },
  {
    "compound": "CC(=O)N[C@H](C(=O)N1C[C@H]2[C@@H]([C@H]1C(=O)NC(C#N)c1cncc3ccccc13)C2(C)C)C(C)(C)C (some centres unmarked)",
    "category": "YES"
  },
  {
    "compound": "CC(C)(C)OC(=O)NC(C(=O)N1C[C@H]2[C@@H]([C@H]1C(=O)NC(C#N)c1cncc(Br)c1)C2(C)C)C(C)(C)C (some centres unmarked)",
    "category": "NO"
  }
]

###

assayed.target: SARS-CoV-2 main protease (3CLpro) (Severe acute respiratory syndrome coronavirus 2 (2019-nCoV) (SARS-CoV-2))
assay.method.text: Enzyme activity test
run.conditions: 200 nM recombinant SARS-CoV-2 main protease, 15 μM fluorescent substrate, pH 7.3
pIC50: −log10 of the molar value.
Mark NO for pIC50 values under 7, and YES for everything at or above.

[
  {
    "molecule": "COc1cncc(C(C#N)NC(=O)[C@@H]2[C@@H]3[C@H](CN2C(=O)[C@@H](NC(C)=O)C(C)(C)C)C3(C)C)c1 (stereo partly drawn)",
    "category": "YES"
  },
  {
    "molecule": "CC(C)(C)[C@H](NC(=O)C(F)(F)F)C(=O)N1C[C@H]2[C@@H]([C@H]1C(=O)NC(C#N)c1cncc(C(F)(F)F)c1)C2(C)C (stereo partly drawn)",
    "category": "YES"
  },
  {
    "molecule": "CC(C)(C)[C@H](NS(=O)(=O)C(F)(F)F)C(=O)N1C[C@H]2[C@@H]([C@H]1C(=O)NC(C#N)c1cncc3ccccc13)C2(C)C (stereo partly drawn)",
    "category": "YES"
  },
  {
    "molecule": "CC(=O)N[C@H](C(=O)N1C[C@H]2[C@@H]([C@H]1C(=O)NC(C#N)c1cncc(Br)c1C)C2(C)C)C(C)(C)C (stereo partly drawn)",
    "category": "YES"
  },
  {
    "molecule": "CC(=O)N[C@H](C(=O)N1C[C@H]2[C@@H]([C@H]1C(=O)N[C@H](C#N)c1cncc3ccccc13)C2(C)C)C(C)(C)C",
    "category": "YES"
  },
  {
    "molecule": "CN(C)c1ccc(S(=O)(=O)N[C@H](C(=O)N2C[C@H]3[C@@H]([C@H]2C(=O)NC(C#N)c2cncc4ccccc24)C3(C)C)C(C)(C)C)cc1 (stereo partly drawn)",
    "category": "YES"
  },
  {
    "molecule": "Cc1ccc(S(=O)(=O)N[C@H](C(=O)N2C[C@H]3[C@@H]([C@H]2C(=O)NC(C#N)c2cncc(C(F)(F)F)c2)C3(C)C)C(C)(C)C)cc1 (stereo partly drawn)",
    "category": "YES"
  },
  {
    "molecule": "CC(=O)N[C@H](C(=O)N1C[C@H]2[C@@H]([C@H]1C(=O)NC(C#N)c1cncc(-n3cccn3)c1)C2(C)C)C(C)(C)C (stereo partly drawn)",
    "category": "YES"
  },
  {
    "molecule": "CC(C)(C)[C@H](NC(=O)C(F)(F)F)C(=O)N1C[C@H]2[C@@H]([C@H]1C(=O)NC(C#N)c1cncc(C#N)c1)C2(C)C (stereo partly drawn)",
    "category": "YES"
  },
  {
    "molecule": "CC(=O)N[C@H](C(=O)N1C[C@H]2[C@@H]([C@H]1C(=O)NC(C#N)c1cncc(C#N)c1)C2(C)C)C(C)(C)C (stereo partly drawn)",
    "category": "NO"
  },
  {
    "molecule": "CC(=O)N[C@H](C(=O)N1C[C@H]2[C@@H]([C@H]1C(=O)NC(C#N)c1cncc(C(F)(F)F)c1)C2(C)C)C(C)(C)C (stereo partly drawn)",
    "category": "NO"
  },
  {
    "molecule": "CC(=O)N[C@H](C(=O)N1C[C@H]2[C@@H]([C@H]1C(=O)NC(C#N)c1cncc(-c3cn[nH]c3)c1)C2(C)C)C(C)(C)C (stereo partly drawn)",
    "category": "YES"
  },
  {
    "molecule": "CC(=O)N[C@H](C(=O)N1C[C@H]2[C@@H]([C@H]1C(=O)NC(C#N)c1cncc3c(F)cccc13)C2(C)C)C(C)(C)C (stereo partly drawn)",
    "category": "YES"
  },
  {
    "molecule": "CC(=O)N[C@H](C(=O)N1C[C@H]2[C@@H]([C@H]1C(=O)NC(C#N)c1cncc(-c3cnn(C)c3)c1)C2(C)C)C(C)(C)C (stereo partly drawn)",
    "category": "YES"
  },
  {
    "molecule": "CN(C)c1ccc(S(=O)(=O)N[C@H](C(=O)N2C[C@H]3[C@@H]([C@H]2C(=O)NC(C#N)c2cncc(C(F)(F)F)c2)C3(C)C)C(C)(C)C)cc1 (stereo partly drawn)",
    "category": "YES"
  },
  {
    "molecule": "Cc1ccc(S(=O)(=O)N[C@H](C(=O)N2C[C@H]3[C@@H]([C@H]2C(=O)NC(C#N)c2cncc4ccccc24)C3(C)C)C(C)(C)C)cc1 (stereo partly drawn)",
    "category": "YES"
  },
  {
    "molecule": "CC(=O)N[C@H](C(=O)N1C[C@H]2[C@@H]([C@H]1C(=O)NC(C#N)c1cnc3[nH]ccc3c1)C2(C)C)C(C)(C)C (stereo partly drawn)",
    "category": "YES"
  },
  {
    "molecule": "CC(=O)N[C@H](C(=O)N1C[C@H]2[C@@H]([C@H]1C(=O)NC(C#N)c1cncc(Br)c1)C2(C)C)C(C)(C)C (stereo partly drawn)",
    "category": "YES"
  },
  {
    "molecule": "CC(=O)N[C@H](C(=O)N1C[C@H]2[C@@H]([C@H]1C(=O)NC(C#N)c1c[nH]c3ccccc13)C2(C)C)C(C)(C)C (stereo partly drawn)",
    "category": "NO"
  }
]
